Tested on: E. faecalis ICB 27159
Format: cell-based, Entercococcus faecalis
Conditions: ICB 27159
Starred links: 1 amine or outer side, 2 acyl side, 3 side chain; linkers in the order of their positions; H or OH if unused. Positions of bridges follow the written chain, without caps; N, C: chain ends. Non-standard residues stand in square brackets, D forms with d. Residues, ends and D or L forms follow the SMILES beside them. Phe(3R-OH) = O=C([C@@H](N[*:1])[C@H](O[*:3])c1ccccc1)[*:2]; Phe(βR-NH) = O=C([C@@H](N[*:1])[C@H](N[*:3])c1ccccc1)[*:2]; X2 = O=C([C@H](Cc1ccc(C(F)(F)F)nc1)N[*:1])[*:2]; Asn(3S-OH) = NC(=O)[C@@H](O)[C@H](N)C(=O)O; Leu(3R-OH) = CC(C)[C@@H](O)[C@H](N)C(=O)O; X1 = Cc1cccc(C[C@H](N[*:1])C(=O)[*:2])n1; d(tBuAla) = CC(C)(C)C[C@@H](N)C(=O)O; tBuAla = CC(C)(C)C[C@H](N)C(=O)O; aThr = C[C@H](O)[C@H](N)C(=O)O
Consider the following compounds; for each one, report its MIC E. faecalis ICB 27159.
Give bare numbers, in µg/mL.

Below are worked cases with known answers.
{"columns": ["compound", "assay.target", "unit.of.measurement", "observed.result"],
 "data": [
  ["CC[C@H](C)[C@@H]1NC(=O)[C@@H](CCCNC(=N)N)NC(=O)[C@H](CC(C)C)NC(=O)[C@H]([C@H](O)C(C)C)NC(=O)[C@@H](NC(=O)[C@H](Cc2cccc(C)n2)NC(=O)[C@H](N)CC(C)(C)C)[C@@H](c2ccccc2)NC(=O)[C@H](CO)NC(=O)[C@H]([C@H](O)C(N)=O)NC(=O)CNC(=O)[C@H]([C@H](C)O)NC1=O.O=C(O)C(F)(F)F.O=C(O)C(F)(F)F.O=C(O)C(F)(F)F [Example 6] (H-[d(tBuAla)][X1][Phe(βR-NH)][Leu(3R-OH)]L[dR]I[aThr]G[Asn(3S-OH)]S; lactam 3-C)", "E. faecalis ICB 27159", "µg/mL", 0.5],
  ["CC[C@H](C)[C@@H]1NC(=O)[C@@H](CCCNC(=N)N)NC(=O)[C@H](CC(C)C)NC(=O)[C@H]([C@H](O)C(C)C)NC(=O)[C@@H](NC(=O)[C@H](CC(C)(C)C)NC(=O)[C@H](N)CC(C)C)[C@@H](c2ccccc2)NC(=O)[C@H](CO)NC(=O)[C@H]([C@H](O)C(N)=O)NC(=O)CNC(=O)[C@H]([C@H](C)O)NC1=O.O=C(O)C(F)(F)F.O=C(O)C(F)(F)F [Example 9] (H-[dL][tBuAla][Phe(βR-NH)][Leu(3R-OH)]L[dR]I[aThr]G[Asn(3S-OH)]S; lactam 3-C)", "E. faecalis ICB 27159", "µg/mL", 0.5],
  ["CC[C@H](C)[C@@H]1NC(=O)[C@@H](CCCNC(=N)N)NC(=O)[C@H](CC(C)C)NC(=O)[C@H]([C@H](O)C(C)C)NC(=O)[C@@H](NC(=O)[C@H](CC(C)C)NC(=O)[C@H](N)CC(C)C)[C@@H](c2ccccc2)OC(=O)[C@H](CO)NC(=O)[C@H]([C@H](O)C(N)=O)NC(=O)CNC(=O)[C@H]([C@H](C)O)NC1=O [Example 1A, reference compound] (H-[dL]L[Phe(3R-OH)][Leu(3R-OH)]L[dR]I[aThr]G[Asn(3S-OH)]S; ester 3-C)", "E. faecalis ICB 27159", "µg/mL", 0.5]
]}

# ---- query compound ----
Measured MIC E. faecalis ICB 27159, CC[C@H](C)[C@@H]1NC(=O)[C@@H](CCCNC(=N)N)NC(=O)[C@H](CC(C)C)NC(=O)[C@H]([C@H](O)C(C)C)NC(=O)[C@@H](NC(=O)[C@H](Cc2ccc(C(F)(F)F)nc2)NC(=O)[C@H](N)CC(C)(C)C)[C@@H](c2ccccc2)NC(=O)[C@H](CO)NC(=O)[C@H]([C@H](O)C(N)=O)NC(=O)CNC(=O)[C@H]([C@H](C)O)NC1=O.O=C(O)C(F)(F)F.O=C(O)C(F)(F)F [Example 7] (H-[d(tBuAla)][X2][Phe(βR-NH)][Leu(3R-OH)]L[dR]I[aThr]G[Asn(3S-OH)]S; lactam 3-C) : 0.25
